Data credit: patent US20230131899A1

Biological target: E. coli CsgA (Escherichia coli, UniProt P28307)
Construct: made in house; host or cells: E. coli NEB 3016 slyD::kan, pET11d
Sequence (P28307 23-151): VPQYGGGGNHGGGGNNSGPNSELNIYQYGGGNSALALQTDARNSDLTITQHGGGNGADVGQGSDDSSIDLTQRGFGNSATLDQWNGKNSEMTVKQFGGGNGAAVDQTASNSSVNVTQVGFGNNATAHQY
Assay: In vitro ThioflavinT assay of CsgA aggregation (CsgA ThT Assay)
Assay type: biochemical
Details: read-out: CsgA ThT Assay (2 μM CsgA) % Control Bmax 25 μM, activity range, class symbol; CsgA 2 μM, white plates; compound 25 μM
Procedure: In vitro ThioflavinT assay to determine effects of compounds on CsgA aggregation. […] Protein concentration was assessed by the NanoDrop technique (Thermo Scientific), as is familiar to one skilled in the art. […] During the assay, plates were shaken initially for 5 seconds and subsequently for 3 seconds prior to fluorescent readings. Readings were performed every 15 minutes for up to 1005 minutes. The effect of compounds on CsgA aggregation in the assay was determined with data from 0-17 hours. […]
READOUT: remaining activity at 25 µM

Solved entries:
O=C(O)[C@H]1CN(Cc2ccccc2)c2c(-c3cccc(C(F)(F)F)c3)c(Cc3cccc4ccccc34)c(Cl)c(=O)n21 (single isomer, unassigned) [Compound 004b]
31 to 60%
O=C(O)c1c(Cc2cccc3ccccc23)c(-c2cccc(C(F)(F)F)c2)c2n(c1=O)C(C(=O)O)CN2Cc1ccccc1 (stereo not drawn)
> 60%
COc1cccc(CN2CC(C(=O)O)n3c2c(-c2cccc(C(F)(F)F)c2)c(Cc2cccc4ccccc24)c(Cl)c3=O)c1 (stereo not drawn)
31 to 60%
CCCN1CC(C(=O)O)n2c(c(-c3cccc(C(F)(F)F)c3)c(Cc3cccc4ccccc34)c(C(N)=O)c2=O)S1(=O)=O (stereo not drawn)
11 to 31%
CC(C)CNC(=O)c1c(Cc2cccc3ccccc23)c(-c2cccc(C(F)(F)F)c2)c2n(c1=O)C(C(=O)O)CN(C)S2(=O)=O (stereo not drawn)
> 60%
O=C(O)C1CN(Cc2ccc(CO)cc2)c2c(-c3cccc(C(F)(F)F)c3)c(Cc3cccc4ccccc34)c(Cl)c(=O)n21 (stereo not drawn)
> 60%
CCCCN1CC(C(=O)O)n2c(c(-c3cccc(C(F)(F)F)c3)c(Cc3cccc4ccccc34)c(C(N)=O)c2=O)S1(=O)=O (stereo not drawn)
31 to 60%
O=C(O)C1CN(CC2CCOCC2)c2c(-c3cccc(C(F)(F)F)c3)c(Cc3cccc4ccccc34)c(Cl)c(=O)n21 (stereo not drawn)
> 60%

Given the entry CCCNC(=O)c1c(Cc2cccc3ccccc23)c(-c2cccc(C(F)(F)F)c2)c2n(c1=O)C(C(=O)O)CN(C)S2(=O)=O (stereo not drawn) , report its measured remaining activity at 25 µM.
> 60%

What about CC(C)(C)c1ccc(Cc2c(-c3cccc(C(F)(F)F)c3)c3n(c(=O)c2Cl)C(C(=O)O)CN3Cc2ccccc2)cc1 (stereo not drawn) ?
> 60%

What about O=C(O)C1CN(CCCCCCN2CC(C(=O)O)n3c2c(-c2cccc(C(F)(F)F)c2)c(Cc2cccc4ccccc24)c(Cl)c3=O)c2c(-c3cccc(C(F)(F)F)c3)c(Cc3cccc4ccccc34)c(Cl)c(=O)n21 (stereo not drawn) ?
31 to 60%

What about CCCN1CC(C(=O)O)n2c(c(-c3cccc(C(F)(F)F)c3)c(Cc3cccc4ccccc34)c(OC(C)C)c2=O)S1(=O)=O (stereo not drawn) ?
> 60%
